# experimental.target: human CXCR3 (N-delta 4) (Homo sapiens)
# Construct: CD8 leader (N); Flag; expressed in transfected cells; membranes prepared
# assay.method.text: Human CXCR3 (N-delta 4) Scintillation Proximity Assay (SPA), [125I] IP-10 binding to Ba/F3-hCXCR3 membranes
# condition.parameters: IC50 rating, Table 1; read-out: IC50
pIC50: −log10 of the molar value.
readout.name: pIC50

Some molecules with recorded pIC50:
{"columns": ["molecule", "pIC50"],
 "data": [
  ["CC[C@H]1CN(c2nc(N)c(C(=O)NCCO)nc2Cl)CCN1C1CCN([C@@H](C(=O)OC)c2ccc(Cl)cc2)CC1", "> 7.60"],
  ["CC[C@H]1CN(c2nc(N)c(C(=O)OC)nc2Cl)CCN1C1CCN(Cc2ccc(C#N)cc2OCCO)CC1", "< 7.00"],
  ["CC[C@H]1CN(c2nc(N)c(C(=O)NC)nc2Cl)CCN1C1CCN(C(=O)c2ccc(Cl)c(F)c2)CC1", "> 7.60"]
]}

Please state recorded pIC50 (tested on human CXCR3 (N-delta 4) (Homo sapiens)) of CC[C@H]1CN(c2nc(N)c(C(=O)NCCO)nc2Cl)CCN1C1CCN(Cc2ccc(Cl)cc2/C(N)=N\O)CC1
> 7.60

Give human CXCR3 (N-delta 4) (Homo sapiens) pIC50 for CC[C@H]1CN(c2ncc(C(N)=O)nc2Cl)CCN1C1CCN(Cc2ccc(Cl)cc2[C@H](O)C(N)=O)CC1 [compound 396]
> 7.60

* * *

# experimental.target: human CXCR3 (N-delta 4) (Homo sapiens, UniProt P49682)
# Construct: CD8 leader (N); Flag; expressed in transfected cells; membranes prepared
# assay.method.text: Human CXCR3 (N-delta 4) Scintillation Proximity Assay (SPA), [125I] IP-10 binding to Ba/F3-hCXCR3 membranes
# condition.parameters: IC50 rating, Table 1; read-out: IC50
readout.name: IC50

Here's what some known entries look like.
{"columns": ["compound", "IC50"],
 "data": [
  ["CC[C@H]1CN(c2nc(N)c(C(=O)NCCNS(C)(=O)=O)nc2Cl)CCN1C1CCN(Cc2ccc(C#N)cc2)CC1 [compound 247]", "25 to 100 nM"],
  ["CC[C@H]1CN(c2nc(N)c(C(N)=O)nc2Cl)CCN1C1CCN(Cc2ccc(C(=O)OC)cc2)CC1 [compound 15]", "< 25 nM"],
  ["CC[C@H]1CN(c2nc(N)c(C(=O)NCCNS(=O)(=O)C(F)(F)F)nc2Cl)CCN1C1CCN(Cc2ccc(Cl)cc2N2CC[C@@H](O)C2)CC1 [compound 241]", "< 25 nM"],
  ["CC[C@H]1CN(c2nc(N)c(C(=O)NCCO)nc2Cl)CCN1C1CCN(C(=O)c2ccc(C#CC(C)(C)O)cc2)CC1 [compound 346]", "25 to 100 nM"],
  ["CC[C@H]1CN(c2nc(N)c(C(=O)NCCO)nc2Cl)CCN1C1CCN(Cc2ccc(OC)cc2O)CC1 [compound 152]", "< 25 nM"]
]}

Notebook entry, human CXCR3 (N-delta 4) (Homo sapiens, UniProt P49682) assay: IC50 of CC[C@H]1CN(c2nc(N)c(C(=O)NC3CC3)nc2Cl)CCN1C1CCN(Cc2ccc(Cl)cc2F)CC1 [compound 83] = ?
< 25 nM

API: value(readout= IC50, system= human CXCR3 (N-delta 4) (Homo sapiens, UniProt P49682), query= CC[C@H]1CN(c2ncc(C(N)=O)nc2C)CCN1C1CCN(Cc2ccc(Cl)cc2)CC1 [compound 412] )
< 25 nM

What is its IC50 for human CXCR3 (N-delta 4) (Homo sapiens, UniProt P49682)? Entry: CC[C@H]1CN(c2nc(N)c(C(=O)NCCO)nc2Cl)CCN1C1CCN(Cc2cc(F)c(Cl)cc2OCCNS(C)(=O)=O)CC1 [compound 165]
< 25 nM

Lab note: need IC50 for CC[C@H]1CN(c2nc(N)c(C(=O)NCCO)nc2Cl)CCN1C1CCN(C(=O)c2ccc(Cl)cc2CC#N)CC1 [compound 317] on human CXCR3 (N-delta 4) (Homo sapiens, UniProt P49682), anyone have it?
< 25 nM

* * *

# experimental.target: human CXCR3 (N-delta 4) (Homo sapiens, UniProt P49682)
# Construct: CD8 leader (N); Flag; expressed in transfected cells; membranes prepared
# Sequence (P49682 5-368 limits assumed): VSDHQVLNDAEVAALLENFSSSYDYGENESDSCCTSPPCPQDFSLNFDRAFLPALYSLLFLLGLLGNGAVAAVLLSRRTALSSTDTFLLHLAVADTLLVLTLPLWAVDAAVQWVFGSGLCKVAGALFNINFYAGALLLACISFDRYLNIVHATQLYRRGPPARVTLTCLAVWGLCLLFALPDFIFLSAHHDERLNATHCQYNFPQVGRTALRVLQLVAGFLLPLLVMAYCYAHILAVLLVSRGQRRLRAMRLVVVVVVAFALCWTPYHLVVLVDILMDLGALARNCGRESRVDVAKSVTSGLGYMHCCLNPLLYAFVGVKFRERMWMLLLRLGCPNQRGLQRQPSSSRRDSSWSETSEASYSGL
# assay.method.text: Human CXCR3 (N-delta 4) Scintillation Proximity Assay (SPA), [125I] IP-10 binding to Ba/F3-hCXCR3 membranes
# condition.parameters: IC50 rating, Table 1; read-out: IC50
readout.name: IC50

Write down the reported IC50 of CC[C@H]1CN(c2nc(N)c(C(=O)NCCO)nc2Cl)CCN1C1CCN(Cc2ccc(F)c(F)c2O)CC1 [compound 178] , test system: human CXCR3 (N-delta 4) (Homo sapiens, UniProt P49682).
25 to 100 nM

Look up IC50 with human CXCR3 (N-delta 4) (Homo sapiens, UniProt P49682) for this compound: CC[C@H]1CN(c2nc(N)c(C(N)=O)nc2Cl)CCN1C1CCN(Cc2ccc(-n3cncn3)cc2)CC1 [compound 54]
> 100 nM

* * *

IC50 values for the compounds below.
# experimental.target: human CXCR3 (N-delta 4) (Homo sapiens)
# Construct: CD8 leader (N); Flag; expressed in transfected cells; membranes prepared
# assay.method.text: Human CXCR3 (N-delta 4) Scintillation Proximity Assay (SPA), [125I] IP-10 binding to Ba/F3-hCXCR3 membranes
# condition.parameters: IC50 rating, Table 1; read-out: IC50
# Excerpt: The inventive compounds can readily be evaluated to determine activity at the CXCR3 receptors by known methods, such as, for example, development of a human CXCR3 (N-delta 4) Binding Assay. Cloning and Expression of Human CXCR3 (N-delta 4): The DNA encoding human CXCR3 was cloned by PCR using human genomic DNA (Promega, Madison, Wis.) as a template. […]

The examples below pair each entry with its known result.
{"columns": ["compound", "experimental.target", "readout.name", "endpoint.value"],
 "data": [
  ["CC[C@H]1CN(c2ncc(C(=O)NC3CC3)nc2C)CCN1C1CCN(Cc2ccc(C(F)(F)F)cc2)CC1 [compound 473]", "human CXCR3 (N-delta 4) (Homo sapiens)", "IC50", "< 25 nM"],
  ["CC[C@H]1CN(c2nc(N)c(C(=O)NCCNS(=O)(=O)C(F)(F)F)nc2Cl)CCN1C1CCN(Cc2ccc(C#N)cc2)CC1 [compound 239]", "human CXCR3 (N-delta 4) (Homo sapiens)", "IC50", "< 25 nM"],
  ["C[C@@H]1CN(C2CCN(Cc3ccc(Cl)cc3F)CC2)[C@@H](C)CN1c1cnc(C(N)=O)cn1 [compound 289]", "human CXCR3 (N-delta 4) (Homo sapiens)", "IC50", "> 100 nM"],
  ["CC[C@H]1CN(c2nc(N)c(C(=O)NC3CC3)nc2Cl)CCN1C1CCN(Cc2ccc(Cl)cc2)CC1O (stereo partly drawn) [compound 98]", "human CXCR3 (N-delta 4) (Homo sapiens)", "IC50", "> 100 nM"],
  ["CC[C@H]1CN(c2nc(N)c(C(=O)NCCO)nc2Cl)CCN1C1CCN(Cc2ccc(OC(F)(F)F)cc2OCCOC)CC1 [compound 118]", "human CXCR3 (N-delta 4) (Homo sapiens)", "IC50", "< 25 nM"]
]}

Could you share which IC50 value was measured for CC[C@H]1CN(c2nc(N)c(C(=O)NCCO)nc2Cl)CCN1C1CCN(C(=O)c2ccc(Cl)cc2CCNS(C)(=O)=O)CC1 [compound 347] ?
25 to 100 nM

Which IC50 is reported for this compound? CC[C@H]1CN(c2nc(N)c(C(=O)NCCNS(N)(=O)=O)nc2Cl)CCN1C1CCN(C(CO)c2ccc(Cl)cc2)CC1 (stereo partly drawn) [compound 259]
< 25 nM

Requested read-out: IC50. Entry: CC[C@H]1CN(c2nc(N)c(C(=O)NCCNS(=O)(=O)C(F)(F)F)nc2Cl)CCN1C1CCN(Cc2ccc(Cl)cc2)CC1 [compound 238]
< 25 nM

# query: IC50 of entry CCOC(=O)COc1cc(Cl)ccc1C(=O)N1CCC(N2CCN(c3nc(N)c(C(=O)NCCO)nc3Cl)C[C@@H]2CC)CC1 [compound 324]
> 100 nM

# input compound: CC[C@H]1CN(c2ncc(C(=O)NC)nc2C)[C@H](C)CN1C1CCN(C(=O)c2ccc(Cl)cc2)CC1 [compound 452] ; wanted: its IC50
< 25 nM

Entry CC[C@H]1CN(c2nc(N)c(C(=O)NCCO)nc2Cl)CCN1C1CCN(Cc2ccc(Cl)cc2O[C@H]2CCOC2)CC1 [compound 189] : reported IC50 = ?
25 to 100 nM

I have this compound here, CC[C@H]1CN(c2nc(N)c(C(N)=O)nc2Cl)CCN1C1CCN(Cc2ccc(Cl)cc2CC(=O)N2CCOCC2)CC1 [compound 55] , and I need its recorded IC50.
> 100 nM

Requested field: IC50. Item: CC[C@H]1CN(c2nc(N)c(C(=O)N[C@@H]3CCCNC3=O)nc2Cl)CCN1C1CCN(Cc2ccc(C#N)cc2)CC1 [compound 210]
> 100 nM
